Experimental system: human CB1 receptor (Homo sapiens)
Experiment description: Binding assay, cannabinoid CB1 receptor ([3H]-CP-55,940 displacement)
Parameters: expressed in transfected cells; host or cells: SK-N-MC cells, pcDNA3 CB-1 (human), semi-purified membranes
Assay setup: test concentration 0.2 μM (superscript a); read-out: CB1 binding percent inhibition
Property measured: inhibition at 0.2 µM (%)
Just the number in %, nothing appended.

Requested read-out: inhibition at 0.2 µM. Entry: `O=C(NN1CCCCC1)c1nn(-c2ccc(F)cc2F)c2c1CS(=O)(=O)C/C2=C\c1ccc(F)cc1`
32

Could you share which inhibition at 0.2 µM value was measured for O=C(NN1CCCCC1)c1nn(-c2ccc(Cl)cc2)c2c1C[S+]([O-])C/C2=C\c1ccc(F)cc1 (stereo not shown) ?
43

What does the data say about its inhibition at 0.2 µM? Entry: C[C@@H](NS(=O)(=O)/C=C/c1n[nH]c2c1CSCC2Cc1cccc(F)c1)C1CCCCC1 (stereo partly shown)
15

Would you mind telling me what inhibition at 0.2 µM value was observed for O=C(N[C@@H]1c2ccccc2C[C@@H]1O)c1nn(-c2ccc(F)cc2F)c2c1CS(=O)(=O)CC2Cc1cccc(F)c1 (stereo partly shown) ?
35

====

Property measured: IC50 (nM)
Give just the numeric value; nM need not be written.

Record lookup: for human CB-2 receptor (Homo sapiens, UniProt P34972), what IC50 belongs to CC12CCC(C1)C(C)(C)C2NC(=O)c1nn(Cc2ccccc2)c2c1CS(=O)(=O)CC2 (centres unmarked) [Cpd 20] ?
5

Any idea what IC50 came out for C[C@@H](NC(=O)c1nn(Cc2ccccc2)c2c1CSCC2)c1ccccc1 [Cpd 1] on human CB-2 receptor (Homo sapiens, UniProt P34972)?
62

Provide the documented IC50 with human CB-2 receptor (Homo sapiens, UniProt P34972) as the system for CC12CCC(C1)C(C)(C)C2NC(=O)c1nn(Cc2ccccc2)c2c1CSCC2 (centres unmarked) [Cpd 19]
Sequence (P34972 whole entry): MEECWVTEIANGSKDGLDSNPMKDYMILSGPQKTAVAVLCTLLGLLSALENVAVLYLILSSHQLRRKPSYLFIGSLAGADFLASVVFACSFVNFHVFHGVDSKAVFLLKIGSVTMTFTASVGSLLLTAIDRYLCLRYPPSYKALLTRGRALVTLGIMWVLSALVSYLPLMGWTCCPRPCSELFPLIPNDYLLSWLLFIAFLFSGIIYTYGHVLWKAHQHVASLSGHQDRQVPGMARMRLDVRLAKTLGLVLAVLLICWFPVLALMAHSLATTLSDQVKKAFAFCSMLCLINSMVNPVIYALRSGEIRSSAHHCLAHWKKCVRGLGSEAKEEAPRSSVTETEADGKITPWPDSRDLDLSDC
0.7

State its IC50 on human CB-2 receptor (Homo sapiens, UniProt P34972): C[C@@H](NC(=O)/C=C/c1nn(Cc2ccccc2)c2c1CSCC2)c1ccccc1 [Cpd 33]
6800

Under human CB-2 receptor (Homo sapiens, UniProt P34972): IC50 value of CC12CCC(C1)C(C)(C)C2NC(=O)c1nn(Cc2ccccc2)c2c1C[S+]([O-])CC2 (centres unmarked) [Cpd 21] ?
56

====

Experimental system: human CB1 receptor (Homo sapiens, UniProt P21554)
Sequence (P21554 whole entry): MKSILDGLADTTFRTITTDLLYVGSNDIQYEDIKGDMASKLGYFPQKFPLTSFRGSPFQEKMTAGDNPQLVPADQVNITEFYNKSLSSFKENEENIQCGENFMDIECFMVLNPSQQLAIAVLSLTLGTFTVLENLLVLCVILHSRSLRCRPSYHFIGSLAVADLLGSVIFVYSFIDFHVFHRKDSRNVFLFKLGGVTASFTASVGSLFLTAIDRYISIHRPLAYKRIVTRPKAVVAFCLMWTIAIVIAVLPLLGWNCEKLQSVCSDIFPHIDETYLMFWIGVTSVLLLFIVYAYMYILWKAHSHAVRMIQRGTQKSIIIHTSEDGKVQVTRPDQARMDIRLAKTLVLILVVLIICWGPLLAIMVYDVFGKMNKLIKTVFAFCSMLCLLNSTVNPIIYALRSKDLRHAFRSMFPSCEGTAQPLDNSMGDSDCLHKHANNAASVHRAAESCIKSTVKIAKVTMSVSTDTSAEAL
Experiment description: Binding assay, cannabinoid CB1 receptor ([3H]-CP-55,940 displacement)
Parameters: expressed in transfected cells; host or cells: SK-N-MC cells, pcDNA3 CB-1 (human), semi-purified membranes
Property measured: pIC50
# pIC50: negative log10 of molar concentration; output just the value

What pIC50 value was documented for this molecule, `C[C@H](NC(=O)c1nn(-c2ccc(Cl)cc2Cl)c2c1CSC/C2=C\c1ccc(F)cc1)c1ccccc1` ?
7.32

Please give the measured pIC50 for this molecule: `CN(NC(=O)c1nn(-c2ccc(Cl)cc2)c2c1CS(=O)(=O)C/C2=C\c1ccc(F)cc1)c1ccccc1`
7.60

What does the data say about its pIC50? Entry: C[C@@H](NC(=O)c1nn(-c2ccc(Cl)cc2Cl)c2c1C[S+]([O-])C/C2=C\c1ccc(F)cc1)c1ccccc1 (stereo partly shown)
7.85

I'd like to know its pIC50. The molecule in question is `C[C@H](NC(=O)c1c2c(nn1-c1ccc(Cl)cc1Cl)/C(=C/c1ccc(F)cc1)CS(=O)(=O)C2)c1ccccc1`
7.68

pIC50 lookup needed for `C[C@@H](NC(=O)c1nn(-c2ccc(Cl)cc2)c2c1CSC/C2=C\c1ccc(F)cc1)c1ccccc1` , thanks.
7.96

Returns the measured pIC50 for the input molecule. Input: `COC[C@@H]1CCCN1NC(=O)c1nn(-c2ccc(Cl)cc2Cl)c2c1CS(=O)(=O)C/C2=C\c1ccc(F)cc1`
7.24

For `O=C(NN1CCCCCC1)c1nn(-c2ccc(Cl)cc2Cl)c2c1CSC/C2=C\c1ccc(F)cc1` , what is its reported pIC50?
8.00

====

Experimental system: human CB-2 receptor (Homo sapiens)
Construct: expressed in transfected cells; host or cells: SK-N-MC cells, pcDNA3 CB-2 (human), semi-purified membranes
Experiment description: Binding assay, cannabinoid CB2 receptor ([3H]-CP-55,940 displacement)
Assay setup: test concentration 0.2 μM (superscript a); read-out: CB2 binding percent inhibition
Please mark Y if the recorded inhibition at 0.2 µM is equal to or greater than 8%, and N if it falls below.

Please indicate if the recorded inhibition at 0.2 µM for `O=C(NN1CCCCCC1)c1nn(-c2ccc(Cl)cc2Cl)c2c1CS(=O)(=O)C/C2=C\c1ccc(F)cc1` meets or exceeds 8%.
Y

Please check the record `COC[C@H]1CCCN1NC(=O)c1nn(-c2ccc(Cl)cc2Cl)c2c1CS(=O)(=O)C/C2=C\c1ccc(F)cc1` and state if its inhibition at 0.2 µM is at or above 8%.
N

Can `O=C(NN1CCCCC1)c1nn(-c2ccc(F)cc2F)c2c1CS(=O)(=O)C/C2=C\c1ccc(F)cc1` be said to have inhibition at 0.2 µM at or above 8%?
N

Determine whether measured inhibition at 0.2 µM meets or exceeds 8% for `C[C@@H](NC(=O)c1c2c(nn1-c1ccc(Cl)cc1Cl)/C(=C/c1ccc(F)cc1)CSC2)c1ccccc1`
Y

For this molecule, is measured inhibition at 0.2 µM 8% or higher? `O=C(NN1CCCCC1)c1nn(-c2ccc(Cl)cc2Cl)c2c1CS(=O)(=O)C/C2=C\c1ccc(Cl)o1`
Y

Is inhibition at 0.2 µM for `C[C@@H](NC(=O)c1nn(-c2ccc(Cl)cc2Cl)c2c1CS(=O)(=O)C/C2=C\c1ccc(Cl)o1)C1CCCCC1` at or above 8%?
Y

Decide: inhibition at 0.2 µM of `O=C(N[C@@H]1c2ccccc2C[C@@H]1O)c1nn(-c2ccc(Cl)cc2Cl)c2c1CS(=O)(=O)C/C2=C\c1ccc(F)cc1` >= 8%?
Y

Does inhibition at 0.2 µM meet or surpass 8% for C[C@@H](NS(=O)(=O)/C=C/c1nn(-c2ccc(F)cc2F)c2c1CSCC2Cc1cccc(F)c1)C1CCCCC1 (stereo partly drawn) ?
Y

Reported inhibition at 0.2 µM reaches at least 8% for O=C(N[C@@H]1CCC[C@H]1O)c1nn(-c2ccc(Cl)cc2Cl)c2c1C[S+]([O-])C/C2=C\c1ccc(F)cc1 (stereo partly drawn) ?
N

inhibition at 0.2 µM >= 8% for CCOC(=O)[C@@H]1C2CCC(C2)[C@@H]1NC(=O)c1nn(-c2ccc(F)cc2F)c2c1CS(=O)(=O)C[C@@H]2Cc1cccc(F)c1 (stereo partly drawn) ?
N

Can `O=C(NN1CCCCC1)c1c2c(nn1-c1ccc(Cl)cc1Cl)/C(=C/c1ccc(F)cc1)CSC2` be said to have inhibition at 0.2 µM at or above 8%?
Y

Check if inhibition at 0.2 µM >= 8% (inclusive). Item: `COC[C@@H]1CCCN1NC(=O)c1nn(-c2ccc(Cl)cc2Cl)c2c1CSC/C2=C\c1ccc(F)cc1`
Y

Please check the record `O=C(NNc1ccc(Cl)cc1Cl)c1nn(-c2ccc(Cl)cc2Cl)c2c1CS(=O)(=O)C/C2=C\c1ccc(F)cc1` and state if its inhibition at 0.2 µM is at or above 8%.
Y

Is inhibition at 0.2 µM at least 8%? Consider `O=C(NNC1CCCCC1)c1nn(-c2ccc(Cl)cc2Cl)c2c1CSC/C2=C\c1ccc(F)cc1`
Y

====

Experimental system: human CB1 receptor (Homo sapiens, UniProt P21554)
Experiment description: Binding assay, cannabinoid CB1 receptor ([3H]-CP-55,940 displacement)
Set-up: expressed in transfected cells; host or cells: SK-N-MC cells, pcDNA3 CB-1 (human), semi-purified membranes
Assay setup: test concentration 0.2 μM (superscript a); read-out: CB1 binding percent inhibition
Description: Binding Assay for CB1 or CB2 Agonists or Inverse Agonists The human CB-1 and CB-2 receptors were stably expressed in SK-N-MC cells transfected with pcDNA3 CB-1 (human) or pcDNA3 CB-2 (human). […] On the day of the assay, the pellet was thawed on ice and diluted in assay buffer (50 mM Tris-HCl, 5 mM MgCl2, 2.5 mM EDTA, 0.5 mg/mL fatty acid free bovine serum albumin, pH 7.5). […] Non-specific binding was measured in wells containing 10 uM WIN 55,212. […]
Decision: inhibition at 0.2 µM >= 30% yields yes (1), all other cases yield no (0).

Confirm if inhibition at 0.2 µM reported for the compound C[C@H](NS(=O)(=O)/C=C/c1nn(-c2ccc(F)cc2F)c2c1CSCC2Cc1cccc(F)c1)c1ccccc1 (stereo partly shown) is 30% or above.
no (0)

// inclusive: inhibition at 0.2 µM at least 30%? input: O=C(N[C@@H]1CCC[C@H]1O)c1nn(-c2ccc(Cl)cc2Cl)c2c1C[S+]([O-])C/C2=C\c1ccc(F)cc1 (stereo partly shown)
no (0)

Form field: inhibition at 0.2 µM at least 30%? Entry: O=C(NN1CC2CCCC2C1)c1nn(-c2ccc(Cl)cc2)c2c1CSC/C2=C\c1ccc(F)cc1 (stereo not shown)
yes (1)

Form field: inhibition at 0.2 µM at least 30%? Entry: `NC(=O)c1nn(-c2ccc(Cl)cc2Cl)c2c1CS(=O)(=O)C/C2=C\c1ccc(F)cc1`
no (0)

Does `O=C(NN1CCCC1)c1nn(-c2ccc(Cl)cc2)c2c1CSC/C2=C\c1ccc(F)cc1` have a reported inhibition at 0.2 µM of at least 30%?
yes (1)

# bool: inhibition at 0.2 µM of `O=C(c1nn(-c2ccc(Cl)cc2Cl)c2c1CS(=O)(=O)C/C2=C\c1ccc(F)cc1)N1CCCCC1` >= 30%
yes (1)

Given the entry O=S1(=O)Cc2c(/C=C/S(=O)(=O)NN3CCCCC3)nn(-c3ccc(F)cc3F)c2C(Cc2cccc(F)c2)C1 (stereo not shown) , answer whether its inhibition at 0.2 µM meets or surpasses 30%.
yes (1)

# credit: patent US7524964B2
